Here the recorded viability, T/C is given for each entry.
System: 616215-338-R-J1-PDC complex spheroid viability;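 note: spheroids exposed to compounds for one week before readout; percent viability relative to DMSO vehicle wells taken as 100%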
Test: Anticancer human tumor 616215-338-R-J1-PDC patient-derived colon adenocarcinoma cell line growth inhibition [POLQ]
Details: second compound 0.316 µM; first compound 0.001 µM; stronger effect = lower value

molecule: CC[C@@]1(O)C(=O)OCc2c1cc1n(c2=O)Cc2cc3c(CN(C)C)c(O)ccc3nc2-1 + Cc1cccc(N(C)C(=O)C2C(O)CCN2c2nc(C)cc(C(F)(F)F)c2C#N)c1
viability, T/C / %: 104

molecule: CC[C@@]1(O)C(=O)OCc2c1cc1n(c2=O)Cc2cc3c(CN(C)C)c(O)ccc3nc2-1 + Nc1ccc(C#CCN(C(=O)Cc2ncc(C(F)(F)F)cc2C(F)(F)F)c2ccc(F)cc2)nn1
viability, T/C / %: 119

molecule: Cn1ncnc1[C@H]1c2n[nH]c(=O)c3cc(F)cc(c23)N[C@@H]1c1ccc(F)cc1 + Nc1ccc(C#CCN(C(=O)Cc2ncc(C(F)(F)F)cc2C(F)(F)F)c2ccc(F)cc2)nn1
viability, T/C / %: 97.3

Ref: PubChem BioAssay AID1963843
